Biological target: 5-LO (LTB4) (Rattus norvegicus)
Construct: An in vivo system involving measuring the effects of a test compound administered orally to a group of male rats; from tissue; host or cells: live male rats, zymosan-inflamed subcutaneous air pouch (endogenous enzyme)
Sequence (P12527 1-673): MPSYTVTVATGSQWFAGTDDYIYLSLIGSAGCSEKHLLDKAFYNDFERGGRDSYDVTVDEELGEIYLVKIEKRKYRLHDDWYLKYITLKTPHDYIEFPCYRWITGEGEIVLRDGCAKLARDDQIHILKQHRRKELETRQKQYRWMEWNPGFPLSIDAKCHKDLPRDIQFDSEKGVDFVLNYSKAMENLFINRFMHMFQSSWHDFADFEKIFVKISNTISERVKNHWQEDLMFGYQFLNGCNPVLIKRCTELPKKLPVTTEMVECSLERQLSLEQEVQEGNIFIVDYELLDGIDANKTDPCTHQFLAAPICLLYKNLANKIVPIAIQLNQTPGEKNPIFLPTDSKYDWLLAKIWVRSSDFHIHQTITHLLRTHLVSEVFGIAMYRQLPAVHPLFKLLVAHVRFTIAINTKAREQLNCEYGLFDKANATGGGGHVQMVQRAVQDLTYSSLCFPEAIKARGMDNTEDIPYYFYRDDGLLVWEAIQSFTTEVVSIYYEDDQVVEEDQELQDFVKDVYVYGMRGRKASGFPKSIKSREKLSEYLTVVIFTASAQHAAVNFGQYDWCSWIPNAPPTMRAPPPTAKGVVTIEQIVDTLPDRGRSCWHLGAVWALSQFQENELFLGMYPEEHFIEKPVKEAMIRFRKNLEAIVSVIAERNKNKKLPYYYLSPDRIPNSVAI
Assay: Test c): in vivo zymosan-induced LTB4 liberation in air pouch of male rats, oral
Details: 3 h; test c)
Listing of entries alongside the reported ED50.

>  <Compound>
C[C@H]1C[C@@](O)(c2csc(Sc3ccc4c(c3)CC(=O)N4C)c2)CCO1 [Example 28]

>  <ED50>
~0.05 mg/kg

$$$$
>  <Compound>
C[C@H]1C[C@@](O)(c2cnc(Sc3ccc4c(c3)CCC(=O)N4C)s2)CCO1 [Example 3]

>  <ED50>
~0.2 mg/kg

$$$$
>  <Compound>
C[C@H]1C[C@@](O)(c2cc(F)cc(S(=O)(=O)c3ccc4c(c3)CCC(=O)N4C)c2)CCO1 [Example 2]

>  <ED50>
~0.15 mg/kg

$$$$
>  <Compound>
C[C@H]1C[C@@](O)(c2csc(Sc3ccc4c(c3)CCC(=O)N4C)c2)CCO1 [Example 5]

>  <ED50>
~0.02 mg/kg

$$$$

====

Listing of entries alongside the reported pIC50.
Target: 5-LO (LTB4) (Homo sapiens, UniProt P09917)
Construct: incubating a test compound with heparinised human blood, prior to challenge with the calcium ionophore A23187
Sequence (P09917 1-674): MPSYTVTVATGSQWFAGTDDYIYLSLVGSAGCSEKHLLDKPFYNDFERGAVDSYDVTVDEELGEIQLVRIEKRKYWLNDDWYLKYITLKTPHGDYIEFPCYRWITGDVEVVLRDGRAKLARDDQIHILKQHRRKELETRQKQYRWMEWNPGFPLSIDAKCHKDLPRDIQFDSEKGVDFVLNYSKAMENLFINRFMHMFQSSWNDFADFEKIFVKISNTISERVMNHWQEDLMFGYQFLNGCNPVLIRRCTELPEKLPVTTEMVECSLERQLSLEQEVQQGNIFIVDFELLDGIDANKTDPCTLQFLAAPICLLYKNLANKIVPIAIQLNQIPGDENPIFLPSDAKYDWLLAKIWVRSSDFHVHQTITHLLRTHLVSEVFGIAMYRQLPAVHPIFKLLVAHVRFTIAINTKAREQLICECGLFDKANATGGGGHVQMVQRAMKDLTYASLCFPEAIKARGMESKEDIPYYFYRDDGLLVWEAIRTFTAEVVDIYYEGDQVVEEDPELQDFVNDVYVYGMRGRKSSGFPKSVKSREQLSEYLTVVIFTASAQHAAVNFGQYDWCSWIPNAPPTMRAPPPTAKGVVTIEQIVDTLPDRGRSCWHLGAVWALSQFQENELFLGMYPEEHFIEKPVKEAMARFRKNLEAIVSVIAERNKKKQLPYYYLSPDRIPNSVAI
Assay: Test a): in vitro assay in heparinised human blood challenged with calcium ionophore A23187, LTB4 by radioimmunoassay
pIC50: −log10 of the molar value.
Observable: pIC50

>  <Molecule>
C[C@H]1C[C@@](O)(c2cnc(Sc3ccc4c(c3)CCC(=O)N4C)s2)CCO1

>  <Val>
7.30

$$$$
>  <Molecule>
C[C@H]1C[C@@](O)(c2csc(Sc3ccc4c(c3)CCC(=O)N4C)c2)CCO1

>  <Val>
7.52

$$$$
>  <Molecule>
C[C@H]1C[C@@](O)(c2cc(F)cc(S(=O)(=O)c3ccc4c(c3)CCC(=O)N4C)c2)CCO1

>  <Val>
7.52

$$$$
>  <Molecule>
C[C@H]1C[C@@](O)(c2csc(Sc3ccc4c(c3)CC(=O)N4C)c2)CCO1

>  <Val>
7.70

$$$$
